- Experimental protocol: Viability qHTS for spleen associated tyrosine kinase inhibitor (SYKi) drug resistant MV4-11 cells (AID 1963824); further: nearly all actives have a fitted effect of over 35% in size; further: potency means the concentration at half of the fitted maximal effect
- Test settings: SYKi-resistant MV4-11 viability, CellTiter-Glo, 72 h; series mostly up to 45 µM
Records with an inconclusive call do not appear. Active and inactive are the calls of the source. The call rests on the fitted dose curve; in most records, active means well fitted cell-killing curve with a large enough effect; inconclusive means small, poorly fitted or top-dose-only effect, or effect the other way; inactive means no such curve, though single readings can be large or run the other way.
Measured property: Potency

INSERT INTO measurements (compound, observed_value) VALUES
  ('N#C/C(=C\c1ccc(O)c(O)c1)C(=O)NCCCc1ccccc1', '8.2 µM (active)'),
  ('CC1(C)CC[C@]2(C(=O)O[C@@H]3O[C@H](CO)[C@@H](O)[C@H](O)[C@H]3O)CC[C@]3(C)C(=CCC4[C@@]5(C)C[C@@H](O)[C@H](O)[C@@](C)(CO)C5[C@H](O)C[C@]43C)C2C1 (some centres not stated)', 'inactive'),
  ('CCCc1nc(C(C)(C)O)c(C(=O)O)n1Cc1ccc(-c2ccccc2-c2nn[nH]n2)cc1', 'inactive'),
  ('CCN1/C(=C/C=C/c2sc3ccccc3[n+]2CC)Sc2ccccc21', '0.058 µM (active)'),
  ('COc1ccc(/C=C/C(=O)O[C@@H]2[C@@H](OC(C)=O)[C@@H](OC(C)=O)[C@H](O[C@H]3[C@@H]4C=CO[C@@H](O[C@@H]5O[C@H](CO)[C@@H](O)[C@H](O)[C@H]5O)[C@@H]4[C@@]4(CO)O[C@@H]34)O[C@H]2C)cc1', 'inactive'),
  ('Oc1ccc(Cl)cc1Sc1cc(Cl)ccc1O', '15 µM (active)'),
  ('CS(=O)(=O)NCC1CCC(Nc2nc3c(s2)CCSc2ccccc2-3)CC1 (configuration not stated)', '4.61 µM (active)');
